Parameter: viability, T/C. Scope: all listed entries.
Test system: 422866-222-R5-J1-PDC complex spheroid viability;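 note: spheroids exposed to compounds for one week before readout; percent of DMSO vehicle wells luminescence so 100% = untreated viability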
Assay: Anticancer human tumor 422866-222-R5-J1-PDC patient-derived pancreatic adenocarcinoma cell line growth inhibition [POLQ]
Conditions: second compound 0.1 µM; first compound 3.16 µM; stronger effect = lower value
Could you write the number and then its unit?

Sample records with viability, T/C:
>  <COMPOUND>
CC1COCCN1c1cc(C2(O)CC3CCC(C2)O3)c2cnn(-c3ccn[nH]3)c2n1 (stereo not given) + COC1C(OC(N)=O)C(O)C(Oc2ccc3c(O)c(NC(=O)c4ccc(O)c(CC=C(C)C)c4)c(=O)oc3c2C)OC1(C)C

>  <viability, T/C>
76.8%

$$$$
>  <COMPOUND>
CCc1cc2c(N3CCc4c(cc(Cn5ccnc5)cc4-c4cn(C)nc4C(F)(F)F)C3=O)ccnc2c(OC)n1 + Nc1ccc(C#CCN(C(=O)Cc2ncc(C(F)(F)F)cc2C(F)(F)F)c2ccc(F)cc2)nn1

>  <viability, T/C>
95.6%

$$$$
>  <COMPOUND>
CCc1cc2c(N3CCc4c(cc(Cn5ccnc5)cc4-c4cn(C)nc4C(F)(F)F)C3=O)cc(C)nc2c(OC)n1 + Cc1cccc(N(C)C(=O)C2C(O)CCN2c2nc(C)cc(C(F)(F)F)c2C#N)c1

>  <viability, T/C>
101%

$$$$

Asked: Query the reported viability, T/C for 422866-222-R5-J1-PDC complex spheroid viability; item: COc1cc2cc(C(=O)CCC(=O)O)sc2cc1OC + Nc1ccc(C#CCN(C(=O)Cc2ncc(C(F)(F)F)cc2C(F)(F)F)c2ccc(F)cc2)nn1
Given back: 84%

Asked: What value of viability, T/C on 422866-222-R5-J1-PDC complex spheroid viability does COc1cccc2c1C(=O)c1c(O)c3c(c(O)c1C2=O)CC(O)(C(=O)CO)CC3OC1CC(N)C(O)C(C)O1 (stereo not given) + Cc1cccc(N(C)C(=O)C2C(O)CCN2c2nc(C)cc(C(F)(F)F)c2C#N)c1 have?
Given back: 27.4%
